Test system: Hek293T
Assay: Primary qHTS to identify gynecologic anti-cancer compounds using libraries of approved drugs and bioactive compounds (AID 1345084); also: nearly all actives have a fitted effect of over 55% in size
Details: Gynecologic cancer cell panel viability, ATPlite luminescence, 48 h, control line for the selectivity index; series mostly up to 57.5 µM
Inconclusive results are not listed. The source made the active and inactive calls. Calls follow the shape of the dose curve; as a rule, active = well fitted cell-killing curve with a large enough effect; inconclusive = small, poorly fitted or top-dose-only effect, or effect the other way; inactive = flat fitted curve, though single readings scatter.
recordedMetric: activity change, negative = cytotoxicity

>>> result("O=C(C1OC1/C=C/c1ccc2c(c1)OCO2)N1CCCCC1 (stereo not given)")
"inactive"
>>> result("CC(C)CC[C@@H](O)[C@](C)(O)[C@H]1CC[C@@]2(O)C3=CC(=O)[C@@H]4C[C@@H](O)[C@@H](O)C[C@]4(C)[C@H]3CC[C@]12C")
"inactive"
>>> result("CC(C)(O)/C=C/C(=O)[C@](C)(O)[C@H]1[C@H](O)C[C@@]2(C)[C@@H]3CC=C4[C@@H](C=C(O[C@@H]5O[C@H](CO)[C@@H](O)[C@H](O)[C@H]5O)C(=O)C4(C)C)[C@]3(C)C(=O)C[C@]12C")
"inactive"
>>> result("COc1ccc(CC(=O)NCc2ccccc2-c2ccccc2C(=O)NCCc2cccnc2)cc1")
"inactive"
>>> result("NC(=O)c1ccc(F)c2c1C[C@@H](N(C1CCC1)C1CCC1)CO2")
"inactive"
>>> result("CCCN1CCC[C@@H](c2cccc(S(C)(=O)=O)c2)C1")
"inactive"
>>> result("COC(=O)C1=CO[C@@H](O[C@@H]2O[C@H](CO)[C@@H](O)[C@H](O)[C@H]2O)[C@@H]2[C@@H](C(=O)O)CC[C@H]12")
"inactive"
>>> result("CC1=C[C@H](O)[C@H]2C(C)(C)CCC[C@]2(C)[C@@]1(O)CO")
"inactive"
>>> result("CC1C(=O)OCC2=CC[N+]3([O-])CCC(OC(=O)C(C)(O)C1(C)O)C23 (stereo not given)")
"inactive"
>>> result("OC[C@@]1(O)CO[C@@H](OC[C@H]2O[C@@H](Oc3ccccc3)[C@H](O)[C@@H](O)[C@@H]2O)[C@@H]1O")
"inactive"
>>> result("Cc1c(Cc2ccc3ccccc3n2)c2cc(F)ccc2n1CC(=O)O")
"inactive"
>>> result("O=C(CCc1ccccc1)c1c(O)c([C@@H]2O[C@H](CO)[C@@H](O)[C@H](O)[C@H]2O)c(O)c([C@@H]2O[C@H](CO)[C@@H](O)[C@H](O)[C@H]2O)c1O")
"inactive"
>>> result("C=C[C@H]1[C@H](O[C@@H]2O[C@H](CO)[C@@H](O)[C@H](OC(=O)/C=C/c3ccc(O)c(OC)c3)[C@H]2O)OC=C2C(=O)OCC[C@]21O")
"inactive"
>>> result("C[C@]12CCC[C@](C)(C(=O)O)C1[C@@H](O)[C@@H](O)C13CC(CCC12)C(CO)(O[C@@H]1O[C@H](CO)[C@@H](O)[C@H](O)[C@H]1O)C3 (stereo not given in full)")
"inactive"
>>> result("Cc1ccccc1-n1nc(-c2c(-c3ccc(F)cc3)nn3c2NC[C@@H](CO)C3)ccc1=O")
"inactive"

----------
Tested on: Zika virus NS2B-NS3 protease (linked)
Experiment: 384 well plate NINDS AMC confirmatory qHTS for Zika virus inhibitors (AID 1347163); also: nearly all actives have a fitted effect of over 50% in size
Conditions: Recombinant NS2B-NS3 protease, Ac-VKTGKR-AMC fluorescence; series mostly up to 100 µM
Records with an inconclusive call do not appear. Active and inactive are the calls of the source. Calls follow the shape of the dose curve; as a rule, active = well fitted inhibition curve with a large enough effect; inconclusive = small, poorly fitted or top-dose-only effect; inactive = no such curve, though single readings can be large or run the other way.
Classes used: active, inactive

>>> classname("C/C=C/C=C/C=C/C(=O)O[C@@H]1[C@@H](OC)C2=C(C(=O)N(C(CCC(=O)O)C(=O)O)C2)[C@@]2(C)CCCC(C)(C)[C@H]12 (stereo not given in full)")
"active"
>>> classname("COc1cccc(OC)c1-c1cc(C(=O)N[C@@H](CC(C)C)C(=O)O)nn1-c1ccnc2cc(Cl)ccc12")
"active"
>>> classname("COc1cc2c(c(O)c1OC/C=C(\\C)CC/C=C(/C)CCC=C(C)C)CN(C(CCC(=O)O)C(=O)O)C2=O (stereo not given)")
"active"
>>> classname("Cc1cc(C)c2nc(-c3ccccn3)cc(C(=O)Nc3ccc(S(=O)(=O)Nc4onc(C)c4C)cc3)c2c1")
"active"
>>> classname("Cc1ccc2[nH]c(=O)c(C3=NN(C(=O)CCC(=O)O)C(c4ccc(Br)cc4)C3)c(-c3ccccc3)c2c1 (stereo not given)")
"inactive"
>>> classname("C=C1CCC2C(C)(C)CCC[C@]2(C)[C@H]1CC/C(C)=C/C(=O)O (stereo not given in full)")
"active"
>>> classname("O=C(Nc1ccccc1)Nc1ccc(-c2ccc(C(=O)C3CCCC3C(=O)O)cc2)cc1 (stereo not given)")
"inactive"
>>> classname("C=C1C2CCC3C(CCC4[C@@]3(C)CCC[C@@]4(C)C(=O)O)(C2)[C@@H]1OC(=O)/C(C)=C\\C (stereo not given in full)")
"active"
>>> classname("C=CC1(C)C=C2CC[C@H]3[C@@](C)(C(=O)O)CCC[C@]3(C)C2CC1 (stereo not given in full)")
"active"
>>> classname("O=C(O)C1(c2ccc(-c3ccc(Cl)c(Cl)c3)c(F)c2)CC1")
"active"
>>> classname("COc1cnc(-c2ccc(Cn3c(CC(C)(C)C(=O)O)c(SC(C)(C)C)c4cc(OC[C@@H]5Cc6ccccc6N5C(C)=O)ccc43)cc2)nc1")
"active"
>>> classname("CC(C)CC(c1c(O)c(C=O)c(O)c(C=O)c1O)C1CCC(C)(O)C2CC(C(C)(C)O)CCC12C (stereo not given)")
"active"
>>> classname("Cc1ccccc1NC(=O)Nc1ccc(CN2C(=O)N([C@@H](CC(C)C)C(=O)N[C@@H](CC(=O)O)c3ccccc3)C(=O)C2(C)C)cc1")
"active"
>>> classname("Cc1ccc([C@@H]2CC=C(C(=O)O)[C@H](c3ccc(C(C)(C)C)cc3)N2S(=O)(=O)c2ccc(C)cc2)cc1")
"active"
>>> classname("O=C1NC(=O)/C(=C/c2cccc(C(F)(F)F)c2)S1")
"active"

Reference for the values: PubChem BioAssay (NCATS)
